Every entry's value here was drawn from PubChem BioAssay (NCI).

Exercise: state measured growth for each of the compounds provided.
System: MDA-MB-435 melanoma
Assay: NCI-60 one-dose screen, 48 h (100 = growth as untreated, 0 = no growth, -100 = all killed)
Details: 10 µM unless noted
This is part of a sample that, as a whole, favours compounds with a hit. Of some 83,000 tested, about 20% had one in any assay.
Answers are plain numbers, in %.

>  <Compound>
COc1ccc(/C=C2\SC(=O)N(Cc3cc(=O)oc4ccc(OC)cc34)C2=O)cc1

>  <growth, %>
100

$$$$
>  <Compound>
COC(=O)c1ccc2[nH]c(O)c(C(=Nc3ccc(N(C)C(=O)CN4CCN(C)CC4)cc3)c3ccc(N)cc3)c2c1

>  <growth, %>
90.6

$$$$
>  <Compound>
Nc1ncn([C@@H]2O[C@H](CO)[C@@H](O)C2(F)F)c(=O)n1

>  <growth, %>
53

$$$$
>  <Compound>
COc1cc([C@@H]2c3cc4c(cc3[C@H](O)[C@H]3COC[C@@H]23)OCO4)cc(OC)c1OC

>  <growth, %>
-12.4

$$$$
>  <Compound>
CCCCCSc1ccc2nc(NC(=O)OCCC)sc2c1

>  <growth, %>
-40.5

$$$$

Value sought for every listed compound: growth.
1. C=CCN(C)C
2. COc1cc2c(cc1OC)C(Cc1cc(OC)c(OC)cc1[N+](=O)[O-])=NCC2

Outgoing:
1: 97.1; 2: 90.9

Value sought for every listed compound: growth.
1. COc1ccc2c(N)ncc(C#Cc3cc(C(=O)Nc4ccc(CN5CCN(C)CC5)c(C(F)(F)F)c4)cnc3C)c2c1
2. C=C(NC(=O)[C@H](C(C)C)N(C)c1cccc2[nH]ccc12)C(=O)OC
3. CCS(=O)(=O)OCCO[C@H]1Cc2cc3ccc(=O)oc3cc2OC1(C)C
4. COc1nc(OC)nc(-c2cc(C(=O)c3ccc(Br)cc3)n3cc(C)cc(C)c23)n1
5. CCOc1ccc2nc3ccc(Cl)cc3nc2c1

Outgoing:
[-56.7, 102, 107, 94.9, 107]

Value sought for every listed compound: growth.
1. CCN(CC)C(=O)C1(C)CCCC2(C)c3cc(OC(C)=O)ccc3CCC12 (stereo not drawn)
2. O=C1C=C(OCC=C(C(F)(F)F)C(F)(F)F)c2ccccc2C1=O
3. c1cc[c]([Bi]([c]2ccccc2)[c]2ccccc2)cc1
4. CCC(C)C1NC(=O)C(CCCCN)NC(=O)C(CCCCN)NC(=O)C(CC(C)C)NC(=O)C(CCCCN)NC(=O)C(C(C)CC)NC(=O)C(C(C)C)NC(=O)C(C(C)CC)NC(=O)C(CCCCN)NC(=O)C(CCCCN)NC(=O)C(C)NC(=O)C(CCCCN)NC(=O)C(CC(C)C)NC1=O (stereo not drawn)
5. CC(=O)OC1/C=C\CC/C=C\C1 (stereo not drawn)
6. COc1ccc2cn3c4ccc(O)cc4[nH]c(=O)c3c2c1
7. O=C1/C(=C\c2cn(-c3nc(N4CCOCC4)nc(N4CCOCC4)n3)c3ccccc23)c2ccccc2N1c1c(Cl)cccc1Cl
8. O=C(NCCNCCO)c1cc([N+](=O)[O-])cc([N+](=O)[O-])c1O

Outgoing:
1. 72.9
2. -40.2
3. 90.4
4. 26.5
5. 103
6. -37.7
7. 83.5
8. 104

Value sought for every listed compound: growth.
1. CCCNC(=O)Oc1ccc(/C(=C(/C)Cc2ccc(OC)cc2)c2ccc(OCCN3CCCCC3)cc2)cc1
2. COc1cc(-c2nn(-c3ccc(NC(=O)Nc4cc(C(F)(F)F)cc(C(F)(F)F)c4)cc3)cc2-c2ccncc2)ccc1Cl
3. COC(=O)C(Cc1cnc[nH]1)N1CC(=O)N2[C@@H](c3ccccc3)SC[C@H]2C1=O (stereo partly drawn)
4. O=C(C(=O)N1CCOCC1)c1ccc(O[C@H]2O[C@H](CO)[C@@H](O)[C@H](O)[C@@H]2O)cc1
5. COc1ccc(CN2C(=O)/C(=C\C(=O)c3ccc(OCCN4CCCC4)cc3)c3ccccc32)cc1
6. c1ccc(Nc2ncc3c(n2)-c2cccn2CC3)cc1

Outgoing:
92.5
0.886
103
108
90.2
105

* * *

System: HCT-116 colon
Assay: NCI-60 one-dose screen, 48 h
Conditions: 10 µM unless noted
The panel holds about 83,000 compounds, 20% with a hit somewhere; the sample as a whole holds those more often. The source made the active and inactive calls. The calls were made as follows: active = growth percent below 10; inactive = the rest.
Could you please pick one outcome from this set? active, inactive

These recorded examples may help you get a feel for the data.
>  <Molecule>
O=C(Nc1ccc(-n2cc(-c3ccncc3)c(-c3ccc(Cl)c(O)c3)n2)cc1)c1ccc(Cl)c(C(F)(F)F)c1

>  <System name>
HCT-116 colon

>  <Group>
active

$$$$
>  <Molecule>
COC(=O)[C@H](Cc1cn(C)cn1)NC(=O)[C@H](Cc1c[nH]c2ccccc12)NC(=O)Nc1cc(C(F)(F)F)cc(C(F)(F)F)c1

>  <System name>
HCT-116 colon

>  <Group>
active

$$$$

Incoming: Returns: the outcome recorded for COCn1c(C(=O)OC)cc2oc(/C=C3/SC(=S)N(N)C3=O)cc21 in this assay.
Outgoing: inactive

Incoming: Returns: the outcome recorded for COC(=O)/C=C1/CCCCC1(C)C(=O)OC (stereo not given) in this assay.
Outgoing: inactive

* * *

Test system: SW-620 colon
Test: NCI-60 one-dose screen, 48 h
Settings: 10 µM unless noted
About 83,000 compounds went through this panel and 20% of them were active in at least one assay; those are over-represented in the sample as a whole. Calls of active or inactive are those of the source. Rule for the calls: active = growth percent below 10; inactive = the rest.
Could you please pick one outcome from this set? active, inactive

>  <Molecule>
CC(=O)NNC(=O)c1sc(NC(C)=O)nc1C

>  <System name>
SW-620 colon

>  <Group>
inactive

$$$$

Incoming: Returns: the outcome recorded for CCCCCCCCCCCCc1ccc([N+](CC)(CC)CC)cc1 in this assay.
Outgoing: inactive

Incoming: Returns: the outcome recorded for COc1cc(-c2nc(/C=C3/C(=O)Nc4ccccc43)c3ccccn23)cc(OC)c1OC in this assay.
Outgoing: inactive

Incoming: Returns: the outcome recorded for COCC(=O)NNc1[nH]c(-c2ccc(OC)cc2)cc1C#N in this assay.
Outgoing: inactive

Incoming: Returns: the outcome recorded for COC(=O)c1ccc2[nH]c(O)c(C(=Nc3ccc(N(C)C(=O)CN4CCN(C)CC4)cc3)c3ccc(CCO)cc3)c2c1 in this assay.
Outgoing: inactive

Incoming: Returns: the outcome recorded for OCC(O)C(O)CC1SCCS1 (configuration not stated) in this assay.
Outgoing: inactive

Incoming: Returns: the outcome recorded for CCOC(=O)c1cc(C(=O)c2ccc(Br)cc2)n2cc(C)cc(C)c12 in this assay.
Outgoing: inactive

Incoming: Returns: the outcome recorded for CC(O)CCC(C)[N+](=O)[O-] (configuration not stated) in this assay.
Outgoing: inactive

Incoming: Returns: the outcome recorded for C#CCCCCCCC[C@@H]1OC(=O)[C@H]([C@@H](C)CC)NC(=O)[C@H]([C@@H](C)CC)NC(=O)CC(=O)[C@@H]1C in this assay.
Outgoing: inactive

Incoming: Returns: the outcome recorded for COc1ccc(OC)c(Cn2cc3c(c2-c2ccccc2)CCc2cnoc2-3)c1 in this assay.
Outgoing: inactive

Incoming: Returns: the outcome recorded for CC[C@@H](C)/C=C(C)/C=C/C(=O)c1c(O)c(-c2ccc(OC(=O)[C@@]34CC[C@@](C)(C(=O)O3)C4(C)C)cc2)cn(O)c1=O in this assay.
Outgoing: inactive

Incoming: Returns: the outcome recorded for COc1cc2c(c(OC)c1OC)C(=O)CC(c1cccc(C(=O)Nc3cccc(Br)c3)c1)O2 (configuration not stated) in this assay.
Outgoing: inactive

Incoming: Returns: the outcome recorded for CC[C@H](Nc1ncnc2nc[nH]c12)c1nc2cccc(NCc3ccc(C(=O)NO)nc3)c2c(=O)n1-c1ccccc1 in this assay.
Outgoing: inactive

Incoming: Returns: the outcome recorded for CCOC(=O)CCCCCCCCC(=O)OCC in this assay.
Outgoing: inactive

Incoming: Returns: the outcome recorded for Nc1cc(N)c2nc(NCCc3ccc(Cl)c(Cl)c3)cnc2c1 in this assay.
Outgoing: inactive

Incoming: Returns: the outcome recorded for CCCCCCCCCCCCCCCCNC(=S)N/N=C/c1ccc(OC)cc1 in this assay.
Outgoing: inactive

Incoming: Returns: the outcome recorded for COc1ccc(/C=C(/C(=O)N2CCN(c3ccc(C)cc3)CC2)c2cc(OC)c(OC)c(OC)c2)cc1N in this assay.
Outgoing: inactive

Incoming: Returns: the outcome recorded for CCCCCCCCCCCCCCCCCC(=O)Nc1ccc(O)cc1 in this assay.
Outgoing: inactive

Incoming: Returns: the outcome recorded for O=C(/C=C1\C(=O)N(Cc2ccccc2)c2ccccc21)c1ccc(OCCN2CCCCC2)cc1 in this assay.
Outgoing: active

Incoming: Returns: the outcome recorded for c1cc(C2CCCCC2)ccc1OCCCCCCN1CCNCC1 in this assay.
Outgoing: active

Incoming: Returns: the outcome recorded for O=C(NCCNCCO)c1cc([N+](=O)[O-])cc([N+](=O)[O-])c1O in this assay.
Outgoing: inactive

Incoming: Returns: the outcome recorded for CC([C@H]1CC=C2C3CCC4=C[C@@H](N(C)C)CC[C@]4(C)C3CC[C@@]21C)N(C)C (some centres not stated) in this assay.
Outgoing: active
